Values compiled from paper PMC9846428.

# tested.target: EEPD1 (Homo sapiens)
# Sequence: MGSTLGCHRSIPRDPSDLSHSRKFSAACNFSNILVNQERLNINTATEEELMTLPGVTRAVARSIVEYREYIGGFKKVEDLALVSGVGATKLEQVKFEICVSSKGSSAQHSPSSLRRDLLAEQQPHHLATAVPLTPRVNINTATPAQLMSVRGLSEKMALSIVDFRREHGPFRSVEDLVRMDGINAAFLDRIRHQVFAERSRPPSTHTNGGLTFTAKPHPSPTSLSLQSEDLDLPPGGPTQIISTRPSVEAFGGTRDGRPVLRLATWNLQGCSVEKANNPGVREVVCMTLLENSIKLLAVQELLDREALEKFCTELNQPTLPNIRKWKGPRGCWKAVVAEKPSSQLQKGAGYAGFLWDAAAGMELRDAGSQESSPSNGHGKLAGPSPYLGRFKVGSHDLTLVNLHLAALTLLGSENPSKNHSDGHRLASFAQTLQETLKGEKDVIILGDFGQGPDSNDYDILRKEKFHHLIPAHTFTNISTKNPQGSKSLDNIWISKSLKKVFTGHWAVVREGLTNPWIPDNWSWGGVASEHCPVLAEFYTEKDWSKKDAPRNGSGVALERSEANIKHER
# run.description: fluorescence polarization
# condition.details: 5 nM DNA, no Mg2+ listed, THF at nt 15 of strand 1 (N), EMSA: 20 mM HEPES pH 7.9, 1 mM DTT, 30 mM NaCl, 0.03% NP-40, 10% glycerol, 1 ug poly(dI-dC), 20 min room temperature, FP: 10 mM HEPES pH 7.5, 50 mM KCl
endpoint.name: Kd (µM)
Provide the reading as a plain figure in µM.

Req: Bench note: what Kd did CATGCAGCTGATGCNTACAACACACTGTG / TTTTCCCCCCCCCCCGCATCAGCTGCATG / CACAGTGTGTTGTA / GGGGGGGGGGAAAA show?
Resp: 0.081
